assay: Cytotoxicity against human UO31 cells; format: functional; details: UO-31
Listed next: entries and their corresponding LC50.

Example entries and their recorded answers appear below.
COc1cc(/C=C/c2cc(OC)c3cc[nH]c3c2)cc2c1O[C@]1(C)CC[C@@H](O)C(C)(C)[C@H]1C2 = > 100 µM
COc1cc(/C=C/c2cc(O)c3c(CC=C(C)C)c[nH]c3c2)cc2c1O[C@]1(C)CC[C@@H](O)C(C)(C)[C@H]1C2 = 50.1 µM
COc1cc(/C=C/c2cc(O)c3ccn(C)c3c2)cc2c1O[C@]1(C)CC[C@@H](O)C(C)(C)[C@H]1C2 = > 100 µM

Lab note: COc1cc(/C=C/c2cc(OC)c3ccn(C)c3c2)cc2c1O[C@]1(C)CC[C@@H](O)C(C)(C)[C@H]1C2 gave LC50 of > 100 µM

Looking up COc1cc(/C=C/c2cc(OC)c3c(C/C=C(\C)CCC=C(C)C)c[nH]c3c2)cc2c1O[C@]1(C)CC[C@@H](O)C(C)(C)[C@H]1C2 , I found its LC50 recorded as > 100 µM
